- Measured On: Relaxin receptor 1 (Homo sapiens)
- Sequence (Q9HBX9 whole entry): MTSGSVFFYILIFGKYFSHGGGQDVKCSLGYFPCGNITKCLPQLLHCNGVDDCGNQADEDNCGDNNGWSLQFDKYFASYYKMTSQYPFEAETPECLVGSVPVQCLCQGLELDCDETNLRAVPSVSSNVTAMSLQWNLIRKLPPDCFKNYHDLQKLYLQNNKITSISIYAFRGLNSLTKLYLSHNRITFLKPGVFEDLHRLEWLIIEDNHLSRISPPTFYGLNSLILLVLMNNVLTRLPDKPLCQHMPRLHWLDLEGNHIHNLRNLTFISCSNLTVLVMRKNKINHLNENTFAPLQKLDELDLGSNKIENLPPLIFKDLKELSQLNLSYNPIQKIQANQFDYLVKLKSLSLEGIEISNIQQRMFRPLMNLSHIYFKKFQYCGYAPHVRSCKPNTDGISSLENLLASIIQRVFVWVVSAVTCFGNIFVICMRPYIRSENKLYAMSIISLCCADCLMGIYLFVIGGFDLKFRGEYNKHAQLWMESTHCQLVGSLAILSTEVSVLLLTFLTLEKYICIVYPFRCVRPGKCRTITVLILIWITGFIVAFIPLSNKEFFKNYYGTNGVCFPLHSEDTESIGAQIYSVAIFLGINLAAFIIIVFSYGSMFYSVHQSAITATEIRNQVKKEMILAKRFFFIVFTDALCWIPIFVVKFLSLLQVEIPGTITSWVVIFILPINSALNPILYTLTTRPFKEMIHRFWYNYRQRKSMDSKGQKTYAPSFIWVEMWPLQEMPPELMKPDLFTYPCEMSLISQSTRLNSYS
- Assay Method Text: Agonist activity at RXFP1 receptor (unknown origin) expressed in HEK293 cells assessed as stimulation of cAMP production incubated for 30 mins by TR-FRET based HTRF assay
- Assay type: functional, cell-based
- Cond: read-out: AC50
Readout Label: AC50 (µM)
Give the number; µM is assumed, so skip it.

Reported AC50, compound CCOc1ccccc1C(=O)Nc1ccccc1C(=O)Nc1cccc(I)c1 : ____
0.747

Further, for O=C(Nc1ccc2c(c1)CCC2)c1ccccc1NC(=O)C1CCCCC1 ?
9.4

Further, for O=C(Nc1cccc(C(F)(F)F)c1)c1ccccc1NC(=O)C12CC3CC(CC(C3)C1)C2 ?
4.71

Further, for CC(C)(C)OC(=O)N1CCN(CCOc2ccccc2C(=O)Nc2ccccc2C(=O)Nc2cccc(C(F)(F)F)c2)CC1 ?
1.33

Further, for O=C(Nc1ccccc1C(=O)Nc1cccc(C(F)(F)F)c1)c1ccccc1I ?
7.47

Further, for COCCOc1ccccc1C(=O)Nc1ccccc1C(=O)Nc1cccc(C(F)(F)F)c1 ?
0.747

Further, for O=C(Nc1ccccc1C(=O)Nc1cccc(C(F)(F)F)c1)c1ccc(C(F)(F)F)cc1 ?
5.93

Further, for O=C(Nc1cccc(C(F)(F)F)c1)c1ccccc1NC(=O)c1ccccc1C(F)(F)F ?
7.47

Further, for COCCNc1ccccc1C(=O)Nc1cccc(C(F)(F)F)c1 ?
59.3

Further, for O=C(Nc1cccc(C(F)(F)F)c1)c1ccccc1NC(=O)c1ccccc1[N+](=O)[O-] ?
188

Further, for O=C(Nc1ccccc1C(=O)Nc1cccc(C(F)(F)F)c1)c1cccc(-c2ccccc2)c1 ?
5.29
